Tested on: PC-3 [JPC-3]
Test: relative viability (nuclei count vs DMSO), 5 days (fraction); higher = more cells survive
Details: first compound 0.1 µM
# relative viability values compiled below
Keep the answer to the number alone.

Cc1cn(-c2cc(NC(=O)c3ccc(C)c(Nc4nccc(-c5cccnc5)n4)c3)cc(C(F)(F)F)c2)cn1 [Nilotinib] + Cc1cc(Nc2cc(N3CCN(C)CC3)nc(Sc3ccc(NC(=O)C4CC4)cc3)n2)n[nH]1 [Tozasertib] (partner 0.1 µM) ... 0.426

Req: Identify the measured relative viability of Cc1cn(-c2cc(NC(=O)c3ccc(C)c(Nc4nccc(-c5cccnc5)n4)c3)cc(C(F)(F)F)c2)cn1 [Nilotinib] + CS(=O)(=O)CCNCc1ccc(-c2ccc3ncnc(Nc4ccc(OCc5cccc(F)c5)c(Cl)c4)c3c2)o1 [Lapatinib] (partner 2 µM) for PC-3 [JPC-3].
Resp: 0.282

Req: Identify the measured relative viability of Cc1cn(-c2cc(NC(=O)c3ccc(C)c(Nc4nccc(-c5cccnc5)n4)c3)cc(C(F)(F)F)c2)cn1 [Nilotinib] + CS(=O)(=O)N1CCN(Cc2cc3nc(-c4cccc5[nH]ncc45)nc(N4CCOCC4)c3s2)CC1 [Pictilisib] (partner 1 µM) for PC-3 [JPC-3].
Resp: 0.342

Req: Identify the measured relative viability of Cc1cn(-c2cc(NC(=O)c3ccc(C)c(Nc4nccc(-c5cccnc5)n4)c3)cc(C(F)(F)F)c2)cn1 [Nilotinib] + CC(C)C[C@H](NC(=O)[C@H](Cc1ccccc1)NC(=O)c1cnccn1)B(O)O [Bortezomib] (partner 0.002 µM) for PC-3 [JPC-3].
Resp: 0.46

Req: Identify the measured relative viability of Cc1cn(-c2cc(NC(=O)c3ccc(C)c(Nc4nccc(-c5cccnc5)n4)c3)cc(C(F)(F)F)c2)cn1 [Nilotinib] + Cc1nc(NC(=O)N2CCC[C@H]2C(N)=O)sc1-c1ccnc(C(C)(C)C(F)(F)F)c1 [Alpelisib] (partner 2 µM) for PC-3 [JPC-3].
Resp: 0.982
